measurement_notes: Toxicity in zebrafish embryo assessed as survival at 0.01 uM preincubated for 1 hr measured after 120 hrs (reference value: 82.5 +/- 8.4%)
Parameters: species or system Danio rerio
condition_details: zebrafish embryos

chemical_string: COc1cnc2c(c1)C(=O)c1c-2n(CCCn2ccnc2)c(=O)c2cc([N+](=O)[O-])ccc12
survival at 120 h, 0.01 µM / %: 45

chemical_string: COc1cnc2c(c1)C(=O)c1c-2n(CCCn2ccnc2)c(=O)c2cc(F)ccc12
survival at 120 h, 0.01 µM / %: 87.5

chemical_string: COc1cnc2c(c1)C(=O)c1c-2n(CCCn2ccnc2)c(=O)c2cc(Cl)ccc12
survival at 120 h, 0.01 µM / %: 61.9
